Taken from ChEMBL document CHEMBL1201862.

target-or-system: UniProt P05177
Sequence (P05177 whole entry): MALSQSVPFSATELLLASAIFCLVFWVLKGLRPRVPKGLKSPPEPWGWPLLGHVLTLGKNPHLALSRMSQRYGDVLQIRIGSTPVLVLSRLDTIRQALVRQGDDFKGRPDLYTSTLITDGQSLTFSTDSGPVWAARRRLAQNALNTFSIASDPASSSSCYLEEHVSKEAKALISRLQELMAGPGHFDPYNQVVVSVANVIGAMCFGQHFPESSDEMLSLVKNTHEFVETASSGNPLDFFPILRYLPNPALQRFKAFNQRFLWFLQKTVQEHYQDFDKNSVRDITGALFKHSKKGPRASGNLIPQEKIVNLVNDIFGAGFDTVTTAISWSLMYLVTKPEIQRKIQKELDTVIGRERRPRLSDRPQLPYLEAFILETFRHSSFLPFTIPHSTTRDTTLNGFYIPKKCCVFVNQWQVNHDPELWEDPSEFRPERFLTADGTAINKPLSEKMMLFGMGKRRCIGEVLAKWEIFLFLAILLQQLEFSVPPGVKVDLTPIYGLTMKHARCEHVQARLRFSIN
Structures can show the parent of a compound that is named as a salt.
observable: AC50

Sample answers from the record:
C[C@]1(c2ccccc2)OC(C(=O)O)=CC1=O; 39.8 µM (inconclusive)
CC1=C(C(=O)Nc2ccccc2F)C(c2ccsc2)C2=C(O)CC(c3ccccc3)CC2=N1 (stereo not given); 11.2 µM (inconclusive)
COC(=O)c1ccc(/C=N\NC(=O)c2ccc(C)cc2Cl)cc1; 10 µM (inconclusive)
O=C(CS(=O)(=O)c1cccc(Cl)c1)Nc1ccccc1Cl; 22.4 µM (inconclusive)

Note: attention shifts to another entry.
The reported UniProt P05177 AC50 of CCCCN(CCCC)CCC(O)c1cc2c(Cl)cc(Cl)cc2c2cc(C(F)(F)F)ccc12 (stereo not given) [HALOFANTRINE HYDROCHLORIDE] is 20 µM (inconclusive)

---

In this section we review reported IC50 values for a set of molecules.
target-or-system: Polyadenylate-binding protein 1 (Homo sapiens)
Sequence (P11940 whole entry): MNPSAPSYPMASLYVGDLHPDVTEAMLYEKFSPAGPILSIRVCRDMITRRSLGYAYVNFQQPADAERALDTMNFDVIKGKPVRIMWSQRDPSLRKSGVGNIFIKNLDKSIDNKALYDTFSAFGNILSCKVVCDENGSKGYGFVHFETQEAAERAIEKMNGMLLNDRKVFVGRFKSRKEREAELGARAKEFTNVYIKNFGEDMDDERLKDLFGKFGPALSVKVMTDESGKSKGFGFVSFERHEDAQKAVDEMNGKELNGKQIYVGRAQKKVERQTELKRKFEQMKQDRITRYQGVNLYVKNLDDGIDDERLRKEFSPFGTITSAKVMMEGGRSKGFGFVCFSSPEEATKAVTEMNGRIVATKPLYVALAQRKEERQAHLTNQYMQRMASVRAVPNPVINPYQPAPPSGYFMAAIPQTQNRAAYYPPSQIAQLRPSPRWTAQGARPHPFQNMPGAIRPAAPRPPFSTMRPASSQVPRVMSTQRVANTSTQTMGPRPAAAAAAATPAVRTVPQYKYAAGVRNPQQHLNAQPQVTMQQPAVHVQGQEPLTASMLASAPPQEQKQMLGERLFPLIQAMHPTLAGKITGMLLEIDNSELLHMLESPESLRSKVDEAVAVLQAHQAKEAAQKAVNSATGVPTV
method-notes: MLLE binding blockers, Cy5 peptide tracer – biochemical, fluorescence polarization, Cy5-PAM2 peptide, secondary, miRNA deadenylation inhibitor project, dose response (AID 602260)
Assay type: functional
condition-context: read-out: IC50_Mean
The source made the active and inactive calls.

CCN(CC)S(=O)(=O)c1ccc2c(c1)nc(SCn1nnc3ccccc3c1=O)n2CC; > 66 µM (inactive)

Query molecule follows.
Noted for O=C(O)CNC(=O)CC1SC(NN=C2CSC(=O)N2)=NC1=O (stereo not drawn) : its IC50 reads > 66 µM (inactive)

---

target-or-system: Delta-type opioid receptor (Homo sapiens)
Sequence (P41143 whole entry): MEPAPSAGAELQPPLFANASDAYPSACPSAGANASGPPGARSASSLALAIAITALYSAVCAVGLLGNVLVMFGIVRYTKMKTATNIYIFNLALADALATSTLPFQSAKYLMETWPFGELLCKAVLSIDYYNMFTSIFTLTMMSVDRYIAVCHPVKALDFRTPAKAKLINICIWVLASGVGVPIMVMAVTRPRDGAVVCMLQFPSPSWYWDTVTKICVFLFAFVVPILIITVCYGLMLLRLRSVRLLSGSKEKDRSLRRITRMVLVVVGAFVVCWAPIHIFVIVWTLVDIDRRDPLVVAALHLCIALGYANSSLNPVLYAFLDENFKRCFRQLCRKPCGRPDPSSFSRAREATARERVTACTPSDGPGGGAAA
method-notes: Counterscreen for agonists of heterodimerization of the mu 1 (OPRM1) and delta 1 (OPRD1) opioid receptors: Luminescence-based cell-based high throughput dose response assay to identify agonists of OPRD1 homodimerization. [Related pubchem assays (depositor defined):AID504326, AID504355, AID504692, AID504904, AID504905]
Assay type: functional
Active and inactive are the calls of the source.
observable: EC50

Recorded EC50, per entry:
CN1CCN(c2ccc(NC(=O)c3ccc(-c4ccc(Br)cc4)o3)cc2)CC1; > 10.3 µM (inactive)
Cc1cccc(OCCC(=O)NCC(c2ccccc2)N(C)C)c1 (stereo not given); > 92.5 µM (inactive)
COCCN(C(=O)C1CC(=O)N(Cc2ccccc2)C1)c1nc(-c2ccc([N+](=O)[O-])cc2)cs1 (stereo not given); > 92.5 µM (inactive)

The value of EC50 measured for the compound Cc1cc(Cl)ccc1OCC(=O)N[C@@H](Cc1ccccc1)c1nc2ccccc2[nH]1 turned out to be > 92.5 µM (inactive)

According to the records, this compound Cc1ccc2c(C)c(C(=O)N(Cc3cccs3)C3CCS(=O)(=O)C3)oc2c1 (stereo not given) displays EC50 of 63.6 µM (inactive)

---

target-or-system: Kappa-type opioid receptor (Homo sapiens)
Sequence (P41145 whole entry): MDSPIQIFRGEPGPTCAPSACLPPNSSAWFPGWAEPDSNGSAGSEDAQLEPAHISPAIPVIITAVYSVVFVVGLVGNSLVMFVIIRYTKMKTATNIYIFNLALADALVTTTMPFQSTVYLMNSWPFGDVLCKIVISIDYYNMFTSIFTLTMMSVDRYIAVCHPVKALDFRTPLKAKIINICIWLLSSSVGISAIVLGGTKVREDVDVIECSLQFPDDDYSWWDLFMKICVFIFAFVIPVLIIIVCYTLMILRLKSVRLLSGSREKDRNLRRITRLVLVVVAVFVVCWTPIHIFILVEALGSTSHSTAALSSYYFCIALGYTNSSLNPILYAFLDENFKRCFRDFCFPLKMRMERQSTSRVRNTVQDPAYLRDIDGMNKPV
Type: functional
observable: IC50 (µM)
Report as a plain number; the unit µM is understood.

Measured IC50 of COc1cc2c(c(OC)c1OC)-c1c(cc3c(c1OC)OCO3)C1OC2[C@@H](C)[C@H]1C (some centres not stated) : 9.42

---

target-or-system: High affinity choline transporter 1 (Homo sapiens, UniProt Q9GZV3)
Sequence (Q9GZV3 whole entry): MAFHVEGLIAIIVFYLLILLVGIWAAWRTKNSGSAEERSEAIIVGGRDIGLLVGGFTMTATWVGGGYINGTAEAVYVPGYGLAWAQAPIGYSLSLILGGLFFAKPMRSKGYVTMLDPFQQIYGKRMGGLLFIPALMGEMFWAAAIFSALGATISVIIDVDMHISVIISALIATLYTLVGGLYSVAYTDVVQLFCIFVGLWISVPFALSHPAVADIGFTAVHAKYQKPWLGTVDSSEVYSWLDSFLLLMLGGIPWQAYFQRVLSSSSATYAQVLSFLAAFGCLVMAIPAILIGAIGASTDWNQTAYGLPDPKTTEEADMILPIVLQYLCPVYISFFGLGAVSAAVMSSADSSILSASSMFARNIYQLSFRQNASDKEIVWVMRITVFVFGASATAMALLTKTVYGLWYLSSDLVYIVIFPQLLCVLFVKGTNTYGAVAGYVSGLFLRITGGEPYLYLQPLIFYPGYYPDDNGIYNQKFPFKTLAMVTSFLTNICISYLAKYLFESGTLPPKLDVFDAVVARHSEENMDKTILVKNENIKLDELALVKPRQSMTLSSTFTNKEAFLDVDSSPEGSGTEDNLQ
method-notes: human choline transporter blockers, potency – cell-based, 5-point CRC, membrane potential dye, dose response (AID 504840)
Format: functional
Activity calls are given as the source filed them.
observable: IC50

Cc1ccc(C(=O)NCC(=O)NCCCc2ccccc2)cc1; 16.6 µM (active)
C=CCc1ccc(O)c(-c2ccc(O)c(CC=C)c2)c1 [HONOKIOL]; 12 µM (active)
CC(CN1CCN(C)CC1)OC(=O)c1ccccc1Cl (stereo not given); 10 µM (active)
Cc1nonc1NC(=O)CSc1ccc(-c2ccccc2)nn1; 14.5 µM (active)

Bench note, High affinity choline transporter 1 (Homo sapiens, UniProt Q9GZV3): entry OC1CN=C2Sc3ccccc3N2C1 (stereo not given) , its IC50 = 15.1 µM (active)

---

target-or-system: Peroxisome proliferator-activated receptor gamma/Nuclear receptor coactivator 3 (Homo sapiens, UniProt P37231);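 note: agonist potency for raising coactivator recruitment to the receptor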
Sequence (P37231 whole entry): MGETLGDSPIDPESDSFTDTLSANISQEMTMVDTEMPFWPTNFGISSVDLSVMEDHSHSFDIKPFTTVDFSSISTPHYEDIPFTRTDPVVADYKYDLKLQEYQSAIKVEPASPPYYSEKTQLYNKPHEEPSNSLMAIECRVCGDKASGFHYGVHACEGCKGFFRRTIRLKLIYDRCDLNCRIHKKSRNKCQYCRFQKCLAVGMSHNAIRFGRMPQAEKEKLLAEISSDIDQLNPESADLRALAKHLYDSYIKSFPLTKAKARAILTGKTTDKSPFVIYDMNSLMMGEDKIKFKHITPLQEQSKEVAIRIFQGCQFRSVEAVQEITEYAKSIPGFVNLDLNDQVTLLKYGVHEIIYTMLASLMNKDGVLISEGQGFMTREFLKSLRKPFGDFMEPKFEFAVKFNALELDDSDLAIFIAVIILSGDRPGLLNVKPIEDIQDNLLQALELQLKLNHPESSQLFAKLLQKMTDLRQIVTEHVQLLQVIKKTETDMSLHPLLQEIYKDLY
Sequence (Q9Y6Q9 whole entry, further chain): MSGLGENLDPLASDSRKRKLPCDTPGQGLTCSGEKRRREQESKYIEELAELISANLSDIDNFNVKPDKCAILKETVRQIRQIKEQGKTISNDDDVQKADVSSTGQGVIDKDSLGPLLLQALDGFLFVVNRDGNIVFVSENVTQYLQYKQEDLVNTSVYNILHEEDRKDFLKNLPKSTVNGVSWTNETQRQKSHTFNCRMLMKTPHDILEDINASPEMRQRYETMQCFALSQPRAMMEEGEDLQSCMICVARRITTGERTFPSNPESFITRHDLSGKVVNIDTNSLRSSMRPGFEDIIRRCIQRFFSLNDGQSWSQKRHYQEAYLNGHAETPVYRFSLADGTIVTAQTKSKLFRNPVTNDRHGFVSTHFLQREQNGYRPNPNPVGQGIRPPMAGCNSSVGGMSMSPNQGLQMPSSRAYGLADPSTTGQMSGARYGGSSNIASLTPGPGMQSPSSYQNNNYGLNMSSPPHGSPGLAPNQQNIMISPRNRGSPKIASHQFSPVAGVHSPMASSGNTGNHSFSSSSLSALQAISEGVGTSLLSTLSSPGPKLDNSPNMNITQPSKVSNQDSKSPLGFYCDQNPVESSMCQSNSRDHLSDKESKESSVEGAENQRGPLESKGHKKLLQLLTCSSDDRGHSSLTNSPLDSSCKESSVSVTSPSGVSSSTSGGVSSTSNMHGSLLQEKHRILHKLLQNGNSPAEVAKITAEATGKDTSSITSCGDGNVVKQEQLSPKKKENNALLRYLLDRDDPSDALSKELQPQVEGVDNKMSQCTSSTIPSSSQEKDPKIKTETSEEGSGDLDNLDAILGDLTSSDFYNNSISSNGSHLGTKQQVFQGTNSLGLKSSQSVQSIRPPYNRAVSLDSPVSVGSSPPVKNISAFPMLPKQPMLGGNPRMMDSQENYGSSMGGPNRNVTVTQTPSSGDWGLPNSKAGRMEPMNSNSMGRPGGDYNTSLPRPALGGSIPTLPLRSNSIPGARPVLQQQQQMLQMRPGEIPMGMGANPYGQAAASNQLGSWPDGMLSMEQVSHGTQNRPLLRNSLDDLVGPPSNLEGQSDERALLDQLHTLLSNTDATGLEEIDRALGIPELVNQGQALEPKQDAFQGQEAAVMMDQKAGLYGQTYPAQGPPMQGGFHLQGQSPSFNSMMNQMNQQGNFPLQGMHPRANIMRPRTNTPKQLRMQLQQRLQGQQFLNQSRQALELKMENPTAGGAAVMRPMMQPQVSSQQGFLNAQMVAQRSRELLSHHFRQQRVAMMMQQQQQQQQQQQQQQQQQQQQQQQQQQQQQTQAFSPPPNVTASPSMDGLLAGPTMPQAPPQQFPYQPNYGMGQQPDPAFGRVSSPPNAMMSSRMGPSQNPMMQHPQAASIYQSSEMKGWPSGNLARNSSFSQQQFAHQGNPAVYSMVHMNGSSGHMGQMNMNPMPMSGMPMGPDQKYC
Assay type: functional
EC50 overview

Some entries whose results are on file:
O=C(Nc1cnccn1)c1cccc(C(F)(F)F)c1; > 79.4 µM (not active)
COc1ccc(C(=O)Nc2cc(C)c3c(=O)oc4ccccc4c3n2)cc1; > 79.4 µM (not active)

Recorded EC50 (compound CC(=O)CCc1ccc(OC(=O)c2cccnc2)cc1 ): > 79.4 µM (not active)

Lab book: EC50 of Cc1cccc2cc(CN(Cc3ccc4c(c3)OCO4)Cc3nnnn3C3CCCC3)c(=O)[nH]c12 noted as > 79.4 µM (not active)

The compound identified as FC(F)(F)c1nnc2c(Sc3ccc(Cl)cc3)nc3ccccc3n12 registered its EC50 at 32.3 µM (not active)

---

Listing of recorded AC50 by entry.
target-or-system: Cytochrome P450 2C19 (Homo sapiens, UniProt P33261)
Sequence (P33261 whole entry): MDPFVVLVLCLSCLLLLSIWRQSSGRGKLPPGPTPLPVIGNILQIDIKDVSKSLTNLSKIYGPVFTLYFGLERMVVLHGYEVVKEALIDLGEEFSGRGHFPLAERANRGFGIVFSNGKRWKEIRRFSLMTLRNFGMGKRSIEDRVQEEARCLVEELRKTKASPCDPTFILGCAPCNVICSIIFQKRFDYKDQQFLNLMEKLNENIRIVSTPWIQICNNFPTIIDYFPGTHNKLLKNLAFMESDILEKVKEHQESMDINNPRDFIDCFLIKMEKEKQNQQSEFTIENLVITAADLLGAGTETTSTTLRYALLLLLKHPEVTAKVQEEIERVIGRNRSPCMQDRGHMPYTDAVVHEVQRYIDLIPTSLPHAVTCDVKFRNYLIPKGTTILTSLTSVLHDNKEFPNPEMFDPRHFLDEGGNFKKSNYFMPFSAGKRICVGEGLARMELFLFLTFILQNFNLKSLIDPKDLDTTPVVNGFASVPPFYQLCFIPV
method-notes: Cytochrome panel assay with activity outcomes. Panel member name: p450-cyp2c19 Compounds with AC50 equal or less than 10 uM are considered active
Format: functional
condition-context: read-out: AC50

CCN1CCc2c(sc(NC(=O)c3ccc(S(=O)(=O)N4CCOCC4)cc3)c2C(=O)OC)C1.Cl; 31.6 µM (inconclusive)
CC(=O)Nc1nonc1NC(=O)c1ccc(C(C)(C)C)cc1; 3.55 µM (inconclusive)
CCOC(=O)c1ccc(CNC(=O)C2CCCCC2C(=O)OCC(F)(F)F)o1 (stereo not given); 39.8 µM (inconclusive)
Cc1cnc(CNc2ncnc3ccc(-c4ccc5c(c4)OCO5)cc23)cn1; 15.8 µM (inconclusive)
COc1ccc(-c2cc(C(=O)Nc3cc(OC)c(OC)c(OC)c3)no2)cc1OC; 39.8 µM (inconclusive)

Record summary for COc1ccc(-c2nc(C#N)c(N3CCC(C(N)=O)CC3)o2)cc1OC : reported AC50 = 22.4 µM (inconclusive)

// sample COc1ccc(-n2nc(C(=O)NCC(=O)Nc3ccccn3)c3ccccc3c2=O)cc1 , its AC50 was 3.16 µM (inconclusive)

Per the records, this compound ( O=C1C=C(NCCN2CCOCC2)CC(c2ccccc2)C1 (stereo not given) ) has AC50 equal to 39.8 µM (inconclusive)

Data point: Cc1scc(C(=O)NN=C(S)NCC2CCCO2)c1C (stereo not given) ; AC50 = 6.31 µM (inconclusive)

AC50 recorded for this compound, COc1ccc(C2SCC(=O)Nc3c2c(C)nn3C2CCOC(C)(C)C2)cc1 (stereo not given) , is 39.8 µM (inconclusive)

---

target-or-system: RNA-binding protein pos-1 (Caenorhabditis elegans, UniProt G5EF15)
Sequence (G5EF15 whole entry, the tested form may be a part): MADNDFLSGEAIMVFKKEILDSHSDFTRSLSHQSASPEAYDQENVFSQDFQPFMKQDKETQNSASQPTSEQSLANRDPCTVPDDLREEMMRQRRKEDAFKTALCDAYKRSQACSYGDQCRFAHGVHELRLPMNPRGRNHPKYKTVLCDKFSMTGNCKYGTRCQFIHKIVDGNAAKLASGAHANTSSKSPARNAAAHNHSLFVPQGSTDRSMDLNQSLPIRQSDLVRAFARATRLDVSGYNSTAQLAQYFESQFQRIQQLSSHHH
method-notes: disruptors of C. elegans POS-1 RNA interaction – biochemical, fluorescence polarization, dose response (AID 1964);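 note: purified POS-1 fused to maltose binding protein made in E. coli; potency of compounds blocking POS-1 binding to fluorescent RNA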
The source made the active and inactive calls.
Measured EC50 accompanies every entry in the list below.

Take a look at these entries with their results.
O=C(c1ccccc1)[C@@H]1[C@@H]2C(=O)N(c3ccc(F)cc3)C(=O)[C@@H]2C2CCCN21 (some centres not stated); 37.9 µM (active)
COc1ccc(NC(=O)Nc2ccc(OCc3ccccc3)cc2)cn1; 29.2 µM (active)
COc1ccc(OC)c(C2Nc3c(Cl)ccc(C(=O)O)c3C3C=CCC32)c1 (configuration not stated); > 300 µM (not active)

The compound listed as CC(C)SC1=NSC2=NC(=O)/C(=C\c3c[nH]c4ccccc34)C(=N)N21 shows EC50 equal to 18.6 µM (active)

compound CC1CCCN(c2nc3ccccc3nc2C(C#N)S(=O)(=O)c2cccs2)C1 (configuration not stated) , EC50 observed: 7.02 µM (inconclusive)

Record O=C(NNC(=O)c1cc(Cl)ccc1[N+](=O)[O-])c1csc(N2CCOCC2)n1 . Reported EC50: > 300 µM (inconclusive)

Measured EC50 of Cc1ccc(/C=N/Nc2[nH]cnc3ncnc2-3)cc1 : > 300 µM (not active)
